Just for reference, PubChem BioAssay (NCI) is where these values come from.

System: M14 melanoma
PROTOCOL_DESCRIPTION: NCI tumour cell line growth inhibition, 48 h
MEASUREMENT_KIND: TGI

>>> print(df.to_string())
                                   molecule        system  observed_measurement
0  CCOP(=O)(OCC)C(Nc1ccc(F)cc1)c1cccc([N+](=O)[O-])c1 (stereo not drawn)  M14 melanoma              > 100 µM
1  COc1cc2nc(-c3ccc(C(F)(F)F)cc3)cc(OCCCN3CCOCC3)c2cc1OC  M14 melanoma               1.55 µM
2  CN1C2CC(=O)CC1[C@@H]1OC(c3ccccc3)O[C@H]21 (stereo partly drawn)  M14 melanoma              > 100 µM

###

Listing of recorded TGI by entry.
Tested on: BT-549 breast
PROTOCOL_DESCRIPTION: NCI tumour cell line growth inhibition, 48 h
MEASUREMENT_KIND: TGI

In [3]: df
Out[3]:
                                    compound  observed_measurement
 0   CC(C)n1c(=O)n(-c2ccccc2)n(C(C)(C)C)c1=O              > 100 µM
 1  COc1ccc(-c2c(C#N)c(-c3ccccc3)n(NS(=O)(=O)c3ccccc3)c(=O)c2C#N)cc1              > 100 µM
 2  CCCCCCC/C=C/[C@H]1O[C@]23C(=O)C[C@@]4(C[C@@H](OC5OC(CO)C(O)C(O)C5O)C[C@@H]4[C@H]2C=C1C)OC3=O (stereo partly specified)               12.9 µM
 3  COc1cc(C2C3=C(COC3=O)OC(C)(C)Oc3cc4c(cc32)OCO4)cc(OC)c1OC (stereo unspecified)              > 100 µM
 4  CCOC(=O)c1cn(-c2ccc(Cl)cc2)c(=O)n2c1nc1ccccc12              > 100 µM
 5  Cc1cc(S(=O)(=O)Nc2nc(N)nc(N3N=CCC3C)n2)c(S)cc1Cl (stereo unspecified)               > 10 µM
 6  O=c1ccn(C2OC(CO)C(O)C2O)c(=O)[nH]1 (stereo unspecified)             > 1000 µM
 7    CCCCSc1n/c(=C\c2ccc(N(C)C)cc2)c2nnnn12              > 100 µM
 8           CCOc1ccc(/C=C/C(=O)c2ccccc2)cc1                 62 µM
 9   CC(C)(C)N1Cc2ccccc2/C(=C/Sc2ccccc2)C1=O               20.1 µM
10  COc1ccc2c(c1)C(=O)CC(N)C2 (stereo unspecified)              > 100 µM

###

The following molecules are listed with their measured TGI values.
System: MDA-MB-231 breast
PROTOCOL_DESCRIPTION: NCI tumour cell line growth inhibition, 48 h
Where a SMILES comes first, the peptide text is derived from it. [ ]: non-standard residue; d: D form. The star is where a group is joined. Cbz = O=C(OCc1ccccc1)*; Boc = CC(C)(C)OC(=O)*; Aib = CC(C)(N)C(=O)O; OBn = c1ccc(CO*)cc1; OtBu = CC(C)(C)O*; βAla = NCCC(=O)O

MOLECULE	RELATION_OPERATOR	TGI [µM]
COc1ccc(/C=C/c2cc(OC)c(OC)c(OC)c2)cc1NC(=O)/C=C/c1ccc(F)cc1	>	100
CCOC(=O)C1=C(C)NC(=S)NC1c1cccc(O)c1 (centres undefined)	>	90
CC[N+](CCCCCCCCCC[N+](CC)(c1ccccn1)c1ccccn1)(c1ccccn1)c1ccccn1	=	13.8
C=CC(=O)N1CCCC(n2nc(-c3ccc(Oc4ccccc4)cc3)c3c(N)ncnc32)C1 (centres undefined)	=	23.6
NC(N)=N/N=C/c1nc2sccn2c1[N+](=O)[O-]	=	80.5
CCCCCCCCCCCCCCCCCCOCC(O)COP(=O)(O)OCC1OC(n2cc(F)c(=O)[nH]c2=O)CC1O (centres undefined)	=	36.1
CCCCN(c1ccccc1)c1ncnc2c1cnn2C	>	100
CN(C)c1ccc(/C=C2\Oc3cc(O)ccc3C2=O)cc1	>	100
CC(C)(C)OC(=O)CC(NC(=O)OC(C)(C)C)C(=O)NC(CCCCNC(=O)OCc1ccccc1)C(=O)NC(C)(C)C(=O)NCCC(=O)OCc1ccccc1 (centres undefined) (Boc-D(OtBu)K(Cbz)[Aib][βAla]-OBn; configuration not given here)	>	100
S=C(Nc1ccc(-c2nc3ccccc3[nH]2)cc1)NC1CCCCC1	=	43.1
COc1ccc2c(c1)CCc1c-2n(CCN(C)C)c2ccc(OC)cc12	>	100
CN1CCN(Cc2ccc(NC(=O)c3cncc(C#Cc4cnc(N)c5ccc(F)cc45)c3)cc2C(F)(F)F)CC1	=	3.66
NC(=O)CC(Nc1ncc2c(n1)-c1ccccc1OC2)C(=O)O (centres undefined)	>	100
Nc1nc(-c2cccc([N+](=O)[O-])c2)c(Br)c(=O)[nH]1	>	100
CCOC(=O)c1cn(-c2ccc(Cl)cc2)c(=O)n2c1nc1ccccc12	>	100
CCN(CC)CCNc1c(OC)cc(C)c2sc3ccccc3c(=O)c12	=	10.1
O=C(N=Nc1ccccc1Br)NNc1ccccc1Br	>	100
CN(C)CCNc1nc2ccccc2c2c1c1c(n2Cc2ccccc2)-c2ccccc2C1=O	=	32.1
N#Cc1c2c(c(N3CCOCC3)n3c1nc1ccccc13)CCCC2	=	54.7
O=C(NCCO)c1ccc(Cl)cc1	>	100
C/C=C/[C@H]1O[C@@](OC)([C@@H](C)[C@H](O)[C@H](C)[C@H]2OC(=O)/C(OC)=C/C(C)=C/[C@@H](C)[C@@H](O)[C@@H](C)[C@@H](O)[C@H](C)C/C(C)=C/C=C/[C@@H]2OC)CC(OC2CC(O)C(OC(N)=O)C(C)O2)[C@@H]1C (some centres undefined)	=	12.7
CC#CC(O)(C(=O)OC1CCCN(C)C1)C1=CC=CCC1 (centres undefined)	>	100
CCOC(=O)C(Cc1ccccc1)(Cc1ccc(O)cn1)NC(=O)c1ccccc1 (centres undefined)	=	99.6
COc1cc2nc(-c3ccc(C(F)(F)F)cc3)cc(OCCCN3CCOCC3)c2cc1OC	=	4.51
O=c1oc2ccccc2c(O)c1/C=N\c1nc(-c2ccccc2)cs1	=	54.8
O=C(O)c1ccccc1/C=N\NC1=NCCCCN1	>	100
COC(OC)C(O)C1OC=CC1n1cnc2c(N)ncnc21 (centres undefined)	>	100
CC(C)n1c(=O)n(-c2ccccc2)n(C(C)(C)C)c1=O	>	100
O=c1[nH]nc(Cc2ccc(Cl)cc2)n1O	>	100
Cc1cc(S(=O)(=O)Nc2nnc3cc(C(F)(F)F)cc(C)n23)c(S)cc1Cl	>	100
Nc1nc2c(ncn2C2C=CC(CO)O2)c(=O)[nH]1 (centres undefined)	>	100
CC(=O)Oc1cc(C)ccc1[C@]1(C)CC[C@H](C)/C1=C\Br	=	23.9
CC(C)c1ccc(Cc2cnc(NC(=O)c3cc(Br)cs3)s2)cc1	=	19.4
CCOP(=O)(OCC)C(Nc1ccc(F)cc1)c1cccc([N+](=O)[O-])c1 (centres undefined)	>	100
Nc1c(C(=O)c2ccccc2)sc2nc(-c3cccs3)ccc12	=	5.7
COc1cc(C2C3=C(COC3=O)OC(C)(C)Oc3cc4c(cc32)OCO4)cc(OC)c1OC (centres undefined)	>	100
CCOC(=O)[C@@H](C)C[C@H](Cc1ccccc1)NC(=O)c1csc([C@@H](C[C@H](C(C)C)N(C)C(=O)[C@@H](NC(=O)[C@H]2C[C@H](O[Si](C)(C)C(C)(C)C)CCN2C)C(C)C)OC(C)=O)n1	=	1.89
CCN(CC)CCCNc1ccc2nnn3c4ccc(O)cc4c(=O)c1c23	=	20.9
COc1cc(OC)c(/C=C/c2ccc3ccccc3[n+]2C)c(OC)c1	=	12.1
